Residues, ends and D or L forms follow the SMILES beside them. *: point of attachment. Tos = Cc1ccc(S(=O)(=O)*)cc1
measured property: melting point

Ask: Which melting point value is on record for Cc1ccc(S(=O)(=O)OCC2Cc3cccc(-c4c(Cl)cccc4Cl)c3O2)cc1 (stereo not given) ?
Result: 178 to 180 °C

Ask: GET /values?readout=melting point&item= CN1C(=O)c2ccccc2C(C(=O)O)C1c1ccc(OCc2ccccc2)c(OCc2ccccc2)c1 (stereo not given)
Result: 170 to 172 °C

Ask: Requested read-out: melting point. Entry: "O=C(Nc1ccc(Oc2ccc(N(CC(=O)N3CCN(Cc4ccc5c(c4)OCO5)CC3)C(=O)C(F)(F)F)cc2)nc1)c1ccc(Cl)c(Cl)c1"
Result: 211 to 213 °C

Ask: Any idea what its melting point is? The compound is Cc1nc2cnccc2n1-c1ccc2c(c1)CC(C(=O)O)C2 (stereo not given)
Result: 264 to 267 °C

Ask: # lookup: melting point of CC1(C)CC(O)CC2(C)OC(=O)C=C12 (stereo not given)
Result: 148 to 149 °C

Ask: Request the reported melting point associated with "Cn1nnc2c3nc(O)c(O)nc3ccc21"
Result: > 300 °C

Ask: GET /values?readout=melting point&item= "O=C(O)C1=Cc2ccc(OCc3ccccc3)cc2CC1"
Result: 202 to 205 °C

Ask: GET /values?readout=melting point&item= COC(=O)C(O)C(O)C1CC1 (stereo not given)
Result: 54 to 57 °C

Ask: Recorded melting point of "CCn1cc(C(=O)O)c(=O)c2cc(F)c(N3CCN(CCO)CC3)c(F)c21" , please.
Result: 225 to 228 °C

Ask: Look up melting point: CCOC(=O)C1CCc2c(c(C)nn2C)C1=O (stereo not given)
Result: 76.5 to 79 °C

Ask: Item "COC(=O)c1ccc(-c2ccccc2)cc1S(=O)(=O)NC(=O)Nc1nc(OC)cc(OC)n1" has what recorded melting point?
Result: 204 to 206 °C

Ask: Request the reported melting point associated with CCOC(=O)c1ccc(OCC(C)O)cc1 (stereo not given)
Result: 52 to 53 °C

Ask: Using the record for Cc1n[nH]c(C)c1-c1cccc(OC2SCC(O)C(O)C2O)c1 (stereo not given) , report its melting point.
Result: 213 °C

Ask: State the recorded melting point for this entry: "O=C1c2ccc(Nc3ccc(Cl)cc3)cc2C(=O)N1Cc1cccnc1"
Result: 207 to 210 °C

Ask: Form field: reported melting point of "O=c1nc(-c2ccnc(Cl)c2)sc2ccccc12"
Result: 178 °C

Ask: Find the recorded melting point belonging to "CCOc1cc(OCC)nc(N2CCN(Cc3ccc(CNC(C)=O)cc3)CC2)n1" and report it.
Result: 119 to 120 °C

Ask: Give the measured melting point of O=C(NC(Cc1c[nH]c2ccccc12)C(=O)OCc1ccccc1C(F)(F)F)c1ccccc1 (stereo not given) .
Result: 117 °C

Ask: // returns reported melting point for input "CCOC(=O)CC[C@H](NC(=O)c1ccc(N)c(F)c1)C(=O)OCC"
Result: 92 to 97 °C

Ask: Looking for the measured melting point of "O=[N+]([O-])c1ccc2c(ccn2Cc2cccnc2)c1" , can you help?
Result: 131 to 134 °C

Ask: Please give the measured melting point for this compound: "OCc1cncn1-c1ccccc1"
Result: 81 to 84 °C

Ask: Need melting point, item CN1C(=O)CC2(c3ccccc3)CCCC3OC32C1=O (stereo not given)
Result: 135 to 140 °C

Ask: Sample "O=C(c1cc2ccc(O)cc2[nH]1)N1CCC(Cc2ccc(F)cc2)CC1" — what was its melting point?
Result: 180 to 182 °C

Ask: Entry "O=C(Nc1cccnc1)c1c(OCC2CC2)ccc2oc3ccccc3c12" has what melting point?
Result: 238 to 240 °C

Ask: Param item = C[C@H]1C[C@H](OC(=O)C(C)(C)Oc2ccc(-c3ccccc3)cc2)CC(C)(C)C1 (relative stereo) ; retrieve measured melting point.
Result: 96 °C

Ask: What value of melting point has been reported for the following compound? "COc1cc(NC(=O)C2C(=O)N(C)C(=S)N(C)C2=O)ccc1Oc1ccc(C(F)(F)F)cc1Cl"
Result: 178 to 182 °C

Ask: Request the reported melting point associated with "COc1ccc2c(c1CC1CCCC1)CC[N+]([O-])=C2Cc1c(Cl)cncc1Cl"
Result: 176 to 178 °C

Ask: Field request: melting point | item: CC(C#N)(c1ccccc1)c1ccc([N+](=O)[O-])cc1 (stereo not given)
Result: 76 to 78 °C

Ask: Item "CCCc1c(OCCCS(=O)(=O)c2ccc(CC(=O)OC)cn2)ccc(C(C)=O)c1O" has what recorded melting point?
Result: 124 to 126 °C

Ask: Given the compound C#CCNC(=S)NC1CCC(=O)c2sccc21 (stereo not given) , what is its reported melting point?
Result: 130 to 136 °C

Ask: Would you mind telling me what melting point value was observed for "COC(=O)c1c(O)cc(C(F)(F)F)nc1C(F)(F)F" ?
Result: 62 to 75 °C

Ask: Form field: reported melting point of NC1CCN(C2c3ccccc3COc3ccc(Br)cc32)CC1 (stereo not given)
Result: 142 to 144 °C

Ask: Item under review: "CCOC(=O)c1c(O)c2cnc(-c3ccccc3)nc2n(Cc2ccccc2)c1=O" . Reported melting point?
Result: 230 to 231 °C

Ask: Fill in: melting point of "COc1ccc(C(=O)NS(=O)(=O)C=Cc2ccc(Cl)c(Cl)c2)cc1OC" is ___
Result: 145 to 147 °C

Ask: Requested field: melting point. Item: COc1ccc(CN2C(=O)C(C)(c3cc(C(=O)N(C)CC(F)(F)F)ccc3Cl)c3cc(Cl)ccc32)c(OC)c1 (stereo not given)
Result: 89 °C

Ask: melting point lookup needed for CC1=C(c2ccncc2)SC(C)C(=O)N1 (stereo not given) , thanks.
Result: 144 to 146 °C

Ask: Quick check: melting point of O=C(O)CC1C(CCl)=CCC1O (stereo not given) ?
Result: 33 to 34 °C

Ask: What melting point value was documented for this compound, "CC(C)S(=O)(=O)C1=CC=CN(Cl)C1" ?
Result: 82 to 84 °C

Ask: Value lookup for melting point; key = "COc1cccc(CC(=O)O)c1OCCCc1cn(-c2ccc(NC(=O)C(C)C)cn2)nc1C(C)C"
Result: 122 to 123 °C

Ask: I have this compound here, Cc1ccc(S(=O)(=O)N[C@@H](CCC(=O)O)C(=O)N[C@@H](Cc2ccc(O)cc2)C(=O)O)cc1 (Tos-Glu-Tyr-OH) , and I need its recorded melting point.
Result: 173 to 175 °C

Ask: Which measured melting point value corresponds to "O=S(=O)(c1ccc(O)cc1)c1ncsc1-c1ccccc1" ?
Result: 195 °C

###

measured property: melting point (°C)
Reply with just the number (in °C).

Ask: Need melting point, item "CCOC(=O)c1c[nH]c(=O)s1"
Result: 127

Ask: Record request: melting point value, item "CCn1cc(C(=O)O)c(=O)c2cc(Cl)c(N3CCN(Cc4ccccc4)CC3)cc21"
Result: 228

Ask: What value of melting point has been recorded for this entry: "Cc1cc(N(C)[C@H]2CN(C(=O)CC#N)CC[C@H]2C)n2ncnc2n1"
Result: 119

Ask: Would you mind telling me what melting point value was observed for "NC(=O)C1CCN(C(c2ccccc2)c2ccccc2)CC1" ?
Result: 150

###

measured property: melting point

Ask: Item under review: "CCc1cnc(N2CCN(c3nc(-c4ccccc4)nc4ccccc34)CC2)nc1" . Reported melting point?
Result: 137 to 138 °C

Ask: Given "c1ccc(-n2nnc3c4ccccc4c(OCc4ccccn4)nc32)cc1" , state its recorded melting point.
Result: 147 to 150 °C

Ask: // melting point lookup, key: "COc1cc2c(cc1OC)C(c1ccc([N+](=O)[O-])c(C)c1)=NN(c1noc(=O)[nH]1)[C@H](C)C2"
Result: 221 to 223 °C

Ask: Given CCNC1CCc2[nH]c3ccc(OCc4ccccc4)cc3c2C1 (centres undefined) , state its recorded melting point.
Result: 117 to 118 °C

Ask: Which melting point is listed for "COc1cc(/C=C/C(=O)CC(=O)/C=C/c2cccc(O)c2OC)ccc1O" ?
Result: 152 to 155 °C

Ask: If you can, please state the reported melting point value of "CC(C)Oc1cc(CCCOc2nn(Cc3ccccc3)cc2CC(=O)O)n(Cc2ccc(Cl)cc2OC(C)C)n1" .
Result: 113 to 115 °C

Ask: Field request: melting point | item: O=C1C=CC(OC2CCCCC2)N1S(=O)(=O)c1ccccc1 (centres undefined)
Result: 104 to 106 °C

Ask: Requested read-out: melting point. Entry: COc1ccc(Cc2nc3c(c(OC)nn3C(C)CCCc3ccccc3)c(=O)[nH]2)cc1OC (centres undefined)
Result: 148 °C

Ask: I am curious: what melting point value has been reported for "CCCOc1ccc2ccccc2c1-c1c(OCCC)ccc2ccccc12" ?
Result: 87 °C
